Reference source: ChEMBL document CHEMBL4616601

System: HCT-116
Assay: Antiproliferative activity against human HCT116 cells assessed as reduction in cell viability
Assay type: functional, cell-based
pIC50: −log10 of the molar value.
endpoint: pIC50

**Query** // lookup pIC50 | system=HCT-116 | key= CCOC(=O)c1c(C)n2c3ccccc3c(=O)n2c2ccc3c(c12)OCO3
**Result** 6.73 to 7.39

---

Test system: HepG2
Assay: Antiproliferative activity against human HepG2 cells assessed as reduction in cell viability
Format: functional, cell-based
pIC50: −log10 of the molar value.
endpoint: pIC50

**Query** Would you mind telling me what pIC50 value was observed for CCOC(=O)c1c(C)n2c3ccccc3c(=O)n2c2ccc3c(c12)OCO3 ?
**Result** 6.73 to 7.39

---

Test system: PANC-1
Assay: Antiproliferative activity against human PANC1 cells assessed as reduction in cell viability after 72 hrs
Assay type: functional, cell-based
Details: PANC-1, 72 h
endpoint: IC50 (nM)
Answer format: numeric, nM implied, no suffix.

compound	IC50, nM
CCOC(=O)c1c(-c2ccccc2)n2c3ccccc3c(=O)n2c2ccc(OC)cc12	4230
CCOC(=O)c1c(C)n2c3ccccc3c(=O)n2c2c(OC)cccc12	116
CC(C)[C@]12O[C@H]1[C@@H]1O[C@@]13[C@@]1(C)CCC4=C(COC4=O)[C@@H]1C[C@@H]1O[C@@]13C2=O [TRIPTONIDE]	47

**Query** Entry under review: CCOC(=O)c1c(C)n2c3ccccc3c(=O)n2c2ccc3c(c12)OCO3 . Reported IC50?
**Result** 197

**Query** Here is the next compound: CCOC(=O)c1c(-c2ccc(I)cc2)n2c3ccccc3c(=O)n2c2ccccc12
**Result** 6820

**Query** Now the compound CCOC(=O)c1c(-c2ccccc2)n2c3ccccc3c(=O)n2c2ccc(N3CCOCC3)cc12
**Result** 13800

**Query** Continue with CCOC(=O)c1c(C)n2c3ccc(OC)cc3c(=O)n2c2ccccc12
**Result** 506

**Query** Next up: COC(=O)c1c(C)n2c3ccccc3c(=O)n2c2ccccc12
**Result** 551

**Query** Ok, now COC(=O)c1c(C)n2c3ccccc3c(=O)n2c2c(F)cccc12
**Result** 528
